This section presents binders with their documented SPOT intensity values.
Target: T1, Lsb1, P53281
T1 sequence (P53281 45-122, looked up): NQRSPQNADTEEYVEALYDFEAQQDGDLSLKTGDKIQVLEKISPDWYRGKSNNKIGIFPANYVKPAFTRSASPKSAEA
Test: SPOT array
Details: median of control spots 388
Please state the value as a number alone, without comment.

Sample answers from the record:
{"binder": "RKNRAPPQRPRFNRE", "SPOT intensity": 390}
{"binder": "DGNEEKPLLPTRPNK", "SPOT intensity": 174}
{"binder": "VRTRRRPPPPPIPST", "SPOT intensity": 171}
{"binder": "TTAPALPSLPPPPLL", "SPOT intensity": 0}
{"binder": "APPPPPRRATPEKKP", "SPOT intensity": 30}

Which SPOT intensity value is on record for VPVAPPPPPASLGQS ? 0

Looking for the measured SPOT intensity of PPPPPPPPPPPLPQS , can you help? 0
